- ASSAYED_SYSTEM: alkaline phosphatase (Bos taurus)
- ASSAY: Chemiluminescent signal and signal:background with enhancer polymers (Example XVII)
- Type: biochemical
- CONDITION_NOTES: polymer S/TMQ(1:2); 20 min
MEASURED_ENDPOINT: SIGNAL

Examples with their reported SIGNAL follow.
INSERT INTO assay_data (molecule, recorded_result) VALUES
  ('COC1(c2cccc(OP(=O)(O)O)c2)OOC12C1CC3CC2CC(O)(C3)C1 (single isomer, unassigned) [B-OH-AMPPD]', 5722.3),
  ('COC1(c2cccc(OP(=O)(O)O)c2)OOC12C1CC3CC2CC(Cl)(C3)C1 (stereo not shown)', 6696.9),
  ('COC1(c2cccc(OP(=O)(O)O)c2)OOC12C1CC3CC(C1)CC2C3 (stereo not shown) [AMPPD, reference compound]', 9994.7);

// next entry
Prompt: Which measured SIGNAL value corresponds to COC1(c2cccc(OP(=O)(O)O)c2)OOC12C1CC3CC2CC(O)(C3)C1 (single isomer, unassigned) [A-OH-AMPPD] ?
Response: 11365.1

---

- ASSAYED_SYSTEM: alkaline phosphatase (Bos taurus, UniProt P19111)
- Sequence (P19111 20-506 limits assumed): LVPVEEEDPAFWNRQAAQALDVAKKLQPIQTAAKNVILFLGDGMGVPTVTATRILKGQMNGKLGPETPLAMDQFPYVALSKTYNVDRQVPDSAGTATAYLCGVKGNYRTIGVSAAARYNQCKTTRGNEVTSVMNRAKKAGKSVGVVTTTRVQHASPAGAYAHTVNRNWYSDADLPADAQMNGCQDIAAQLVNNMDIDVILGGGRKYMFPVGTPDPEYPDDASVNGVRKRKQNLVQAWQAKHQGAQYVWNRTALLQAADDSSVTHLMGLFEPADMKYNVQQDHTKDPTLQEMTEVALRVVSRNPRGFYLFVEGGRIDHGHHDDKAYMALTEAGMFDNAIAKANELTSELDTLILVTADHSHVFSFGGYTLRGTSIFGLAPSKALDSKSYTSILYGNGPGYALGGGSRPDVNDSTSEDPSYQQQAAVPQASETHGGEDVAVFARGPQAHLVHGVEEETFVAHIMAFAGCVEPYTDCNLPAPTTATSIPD
- ASSAY: Chemiluminescent signal and signal:background with enhancer polymers (Example XVII)
- Format: biochemical
- CONDITION_NOTES: polymer DMQ TEQ; 20 min
Record form. Attribute: S/N. Fill in for each entry.
One number for each entry.

Please review the following examples before continuing.
INSERT INTO results (compound, recorded_result) VALUES
  ('COC1(c2cccc(OP(=O)(O)O)c2)OOC12C1CC3CC2CC(O)(C3)C1 (single isomer, unassigned) [A-OH-AMPPD]', 227.9),
  ('COC1(c2cccc(OP(=O)(O)O)c2)OOC12C1CC3CC(C1)CC2C3 (stereo not shown) [AMPPD, reference compound]', 322.1),
  ('COC1(c2cccc(OP(=O)(O)O)c2)OOC12C1CC3CC2CC(O)(C3)C1 (single isomer, unassigned) [B-OH-AMPPD]', 57.0);

Prompt: Recorded S/N of COC1(c2cccc(OP(=O)(O)O)c2)OOC12C1CC3CC2CC(Cl)(C3)C1 (stereo not shown) , please.
Response: 747.2

---

- ASSAYED_SYSTEM: alkaline phosphatase (Bos taurus)
- ASSAY: Chemiluminescent signal and signal:background with enhancer polymers (Example XVII)
- Type: biochemical
- CONDITION_NOTES: polymer TBQ; 20 min
- Method: Four sets of three tubes each, each tube in each set containing 450 μl of a 0.4 mM aqueous solution of one of the four 1,2-dioxetanes being compared in 0.1M diethanolamine containing 1 mM magnesium chloride, 0.02% sodium azide and 0.1% of the enhancer polymer, pH 10.0 (substrate buffer) were prepared and the background signal from each tube measured using a Berthold LB 952T luminometer (Berthold Instruments; Wildbad, Federal Republic of Germany). […]
Assign SIGNAL to each entry below.

Here's what some known entries look like.
INSERT INTO measurements (compound, measured_endpoint, recorded_result) VALUES
  ('COC1(c2cccc(OP(=O)(O)O)c2)OOC12C1CC3CC2CC(Cl)(C3)C1 (stereo not shown)', 'SIGNAL', 209466.8),
  ('COC1(c2cccc(OP(=O)(O)O)c2)OOC12C1CC3CC2CC(O)(C3)C1 (single isomer, unassigned) [B-OH-AMPPD]', 'SIGNAL', 20830.8),
  ('COC1(c2cccc(OP(=O)(O)O)c2)OOC12C1CC3CC2CC(O)(C3)C1 (single isomer, unassigned) [A-OH-AMPPD]', 'SIGNAL', 44569.8);

Could you now look at the following compound, please?
Prompt: Which value of SIGNAL has been reported for COC1(c2cccc(OP(=O)(O)O)c2)OOC12C1CC3CC(C1)CC2C3 (stereo not shown) [AMPPD, reference compound] in the records?
Response: 214319.4
